src = PubChem BioAssay (EPA / NIEHS)

Read-out: Cytochrome P450 2C19 (Homo sapiens)
ASSAY_NAME: LTEA_HepaRG_CYP2C19: Life Technologies and Expression Analysis (LTEA) Assay for CYP2C19 using HepaRG (AID 2283482)
CONDITION_NOTES: mRNA level, 48 h; actives raise or lower the signal
The source made the active and inactive calls. Rule for the calls: active = hit-call score of the fitted dose curve at least 0.9, where 1 is the maximum; inactive = score below 0.9.
Result category, one only: TRUE for active, FALSE for inactive

Take a look at these entries with their results.
>>> label("CCc1c(C(=O)NN2CCCCC2)nn(-c2ccc(Cl)cc2Cl)c1-c1ccc(Br)cc1")
"TRUE"
>>> label("CCCCCCCCCCCCCO")
"FALSE"
>>> label("CC=Cc1ccc(O)c(OC)c1")
"FALSE"
>>> label("CC(C)c1ccc(C(=O)N=C(N)N)cc1S(C)(=O)=O")
"TRUE"
>>> label("COc1cc(C=O)ccc1O")
"FALSE"
>>> label("CC(=O)OCCOCCOCCOC(C)=O")
"FALSE"

Pending compound:
Hi team, can someone confirm the assay call for CCCCOC(=O)CCCCCCCCC(=O)OCCCC ?
FALSE
